- tested system: T1, human GIP receptor (human, UniProt P48546 22-466)
- T1 sequence (looked up): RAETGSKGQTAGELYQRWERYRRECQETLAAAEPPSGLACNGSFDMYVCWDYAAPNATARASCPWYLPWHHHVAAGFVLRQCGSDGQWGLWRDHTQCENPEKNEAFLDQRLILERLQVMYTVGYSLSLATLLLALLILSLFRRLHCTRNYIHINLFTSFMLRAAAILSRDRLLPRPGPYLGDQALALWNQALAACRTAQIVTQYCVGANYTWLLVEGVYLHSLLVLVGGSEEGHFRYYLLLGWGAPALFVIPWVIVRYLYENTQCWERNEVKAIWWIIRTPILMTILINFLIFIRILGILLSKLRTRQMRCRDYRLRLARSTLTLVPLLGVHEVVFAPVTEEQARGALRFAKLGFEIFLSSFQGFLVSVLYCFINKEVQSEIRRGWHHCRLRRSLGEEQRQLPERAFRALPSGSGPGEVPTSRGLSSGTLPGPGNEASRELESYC
- test description: cell-based or functional assay
readout: EC50 (cAMP) (nM)

>>> df
                                     binder      readout  readout_number
0  HADGSFSDEMNTILDNLAARDFINWLIQTKITD (ligand) [human native GLP-2]  EC50 (cAMP)              56
1  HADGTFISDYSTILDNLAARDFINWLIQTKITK (C12 acyl group on Lys 33 (K(C12/33), 'with C12 pos 33')) [GIP-GLP-2 co-agonist 32]  EC50 (cAMP)            0.15
2  HADGTFISDYSTILDNLKARDFINWLIQTKITK [GIP-GLP-2 co-agonist 27]  EC50 (cAMP)            0.55
